Target: PXR (NR1I2) (Homo sapiens)
Sequence (O75469 whole entry): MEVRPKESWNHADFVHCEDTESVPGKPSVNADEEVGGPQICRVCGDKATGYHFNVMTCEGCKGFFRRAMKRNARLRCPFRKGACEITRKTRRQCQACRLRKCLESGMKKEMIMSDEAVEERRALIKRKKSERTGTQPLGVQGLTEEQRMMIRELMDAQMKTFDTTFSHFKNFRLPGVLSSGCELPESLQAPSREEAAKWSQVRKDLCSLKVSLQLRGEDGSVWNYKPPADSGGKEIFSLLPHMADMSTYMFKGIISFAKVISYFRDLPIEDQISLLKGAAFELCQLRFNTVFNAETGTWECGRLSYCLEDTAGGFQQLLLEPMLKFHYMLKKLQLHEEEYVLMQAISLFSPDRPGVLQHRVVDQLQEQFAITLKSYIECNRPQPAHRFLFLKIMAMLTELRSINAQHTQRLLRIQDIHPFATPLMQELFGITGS
Assay: Inhibition of human PXR expressed in HepG2 cells co-expressing luciferase gene under control of CYP3A4 promoter at 10 uM incubated for 24 hrs in presence of 5 uM rifampicin by luciferase reporter assay relative to control
Type: cell-based
Experimental Endpoint: inhibition at 24 h, 10 µM
The answer consists of two parts: a number and, after it, its unit.

Q: Given `COc1cc(-n2nnc(S(=O)(=O)c3ccc(C(C)(C)C)cc3)c2C)c(OC)cc1F` , state its recorded inhibition at 24 h, 10 µM.
Ans: 72%

Q: Given `COc1ccc(CO)cc1-n1nnc(S(=O)(=O)c2ccc(C(C)(C)C)cc2)c1C` , state its recorded inhibition at 24 h, 10 µM.
Ans: 64%

Q: Given `COc1cc(-n2nnc(S(=O)(=O)c3ccc(C(C)(C)C)cc3)c2C)c(OC)cc1C` , state its recorded inhibition at 24 h, 10 µM.
Ans: 30%

Q: Given `COc1ccc(C)cc1-n1nnc(S(=O)(=O)c2ccc(C(C)(C)C)cc2)c1N` , state its recorded inhibition at 24 h, 10 µM.
Ans: 46%

Q: Given `COC(=O)c1cc(OC)c(-n2nnc(S(=O)(=O)c3ccc(C(C)(C)C)cc3)c2C)cc1Cl` , state its recorded inhibition at 24 h, 10 µM.
Ans: 51%

Q: Given `COc1ccccc1-n1nnc(S(=O)(=O)c2ccc(C(C)(C)C)cc2)c1C` , state its recorded inhibition at 24 h, 10 µM.
Ans: 53%

Q: Given `COc1cc(C)c(Cl)cc1-n1nnc(S(=O)(=O)c2ccc(C(C)(C)C)cc2)c1C` , state its recorded inhibition at 24 h, 10 µM.
Ans: 64%

Q: Given `COc1cc(C#N)c(C)cc1-n1nnc(S(=O)(=O)c2ccc(C(C)(C)C)cc2)c1C` , state its recorded inhibition at 24 h, 10 µM.
Ans: 33%

Q: Given `COc1ccc(OC)c(-n2cc(S(=O)(=O)c3ccc(C(C)(C)C)cc3)nn2)c1` , state its recorded inhibition at 24 h, 10 µM.
Ans: 71%

Q: Given `COc1ccc(OC)c(-n2nnc(S(=O)(=O)c3ccc(C(C)(C)C)cc3)c2N)c1` , state its recorded inhibition at 24 h, 10 µM.
Ans: 52%
